biological target: T1, human PD-1-His protein (human, UniProt Q15116 25-167, limits assumed); assay: SPR Biacore
T1 construct: also called huPD-1; not shown: His tag
T1 sequence (Q15116 25-167 limits assumed): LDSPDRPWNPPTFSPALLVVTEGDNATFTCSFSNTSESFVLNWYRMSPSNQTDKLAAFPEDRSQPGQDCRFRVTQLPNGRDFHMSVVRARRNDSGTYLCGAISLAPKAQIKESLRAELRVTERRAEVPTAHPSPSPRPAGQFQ
pKd: −log10 of the molar value.
Endpoint Label: pKd

INSERT INTO results (binder, measured_number) VALUES
  ('HumAb703-11 (antibody, human IgG1, kappa, L234A L235A, V domains shown, humanized mAb703) VH: EVQLQESGPGLVKPSETLSLTCAVSGYSISTGYYWNWIRQPPGKGLEWIGYMSYDGNNNYNPSLKNRVTISRDTSKNQFSLKLSSVTAADTAVYYCARDRGTTILGGTMDYWGQGTTVTVSS VL: DIQMTQSPSSLSASVGDRVTITCKASQSVSNDVAWYQQKPGKAPKLLIYYAFYRYTGVPDRFSGSGYGTDFTLTISSLQPEDFATYYCQQDYSSPWTFGGGTKVEIKR', 8.03),
  ('HumAb703-22 (antibody, human IgG1, kappa, L234A L235A, V domains shown, humanized mAb703; also called HurnAb703-22) VH: EVQLQESGPGLVKPSETLSLTCAVSGYSISTGYYWNWIRQPPGKGLEWIGYMSYDGNNNYNPSLKNRITISRDTSKNQFSLKLSSVTAADTAVYYCARDRGTTILGGTMDYWGQGTTVTVSS VL: SIVMTQSPSSLSASVGDRVTITCKASQSVSNDVAWYQQKPGKSPKLLIYYAFYRYTGVPDRFTGSGYGTDFTLTISSLQPEDFATYFCQQDYSSPWTFGGGTKVEIKR', 8.16),
  ('HumAb703-12 (antibody, human IgG1, kappa, L234A L235A, V domains shown, humanized mAb703) VH: EVQLQESGPGLVKPSETLSLTCAVSGYSISTGYYWNWIRQPPGKGLEWIGYMSYDGNNNYNPSLKNRITISRDTSKNQFSLKLSSVTAADTAVYYCARDRGTTILGGTMDYWGQGTTVTVSS VL: DIQMTQSPSSLSASVGDRVTITCKASQSVSNDVAWYQQKPGKAPKLLIYYAFYRYTGVPDRFSGSGYGTDFTLTISSLQPEDFATYYCQQDYSSPWTFGGGTKVEIKR', 8.05);
